Provenance of the data: patent US20120184562A1

Target: Human DYRK1B (Homo sapiens)
Construct: purchased Invitrogen PR8350B (former PV4649)
Sequence (Q9Y463 whole entry): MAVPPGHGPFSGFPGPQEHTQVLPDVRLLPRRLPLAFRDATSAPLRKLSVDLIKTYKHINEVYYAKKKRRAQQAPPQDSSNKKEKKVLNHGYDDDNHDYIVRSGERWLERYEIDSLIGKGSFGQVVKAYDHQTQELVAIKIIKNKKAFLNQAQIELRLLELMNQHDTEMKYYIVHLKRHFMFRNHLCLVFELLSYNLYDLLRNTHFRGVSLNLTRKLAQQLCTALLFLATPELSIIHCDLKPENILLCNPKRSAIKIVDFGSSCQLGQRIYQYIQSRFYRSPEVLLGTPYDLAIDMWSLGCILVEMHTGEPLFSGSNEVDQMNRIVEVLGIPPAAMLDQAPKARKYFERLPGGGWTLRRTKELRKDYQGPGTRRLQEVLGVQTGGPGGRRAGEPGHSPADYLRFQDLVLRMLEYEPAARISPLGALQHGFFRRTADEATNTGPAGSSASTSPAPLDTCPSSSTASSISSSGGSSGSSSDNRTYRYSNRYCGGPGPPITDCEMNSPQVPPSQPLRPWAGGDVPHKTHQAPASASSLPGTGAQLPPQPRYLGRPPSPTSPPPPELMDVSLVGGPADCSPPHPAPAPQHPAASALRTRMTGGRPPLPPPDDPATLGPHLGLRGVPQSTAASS
Test: DYRK1B Kinase TR-FRET (IMAP-Tb) Assay
Format: biochemical
Details: TR-FRET (IMAP-Tb); ATP 70 μM; 37° C., 60 minutes; average of multiple runs; read-out: Enzyme IC50 (μM) DYRK1B
Where a name gives a salt, the structure may show the parent alone.
Field: log10 of IC50. Provide a value for each of the molecules that follow.
Lab note - IC50 converted to log10 from values in µM.

Check out these entries, answers already filled in.
COC(=O)c1ccc(Cl)c(NC(=O)c2cc3cnc(OC)cc3[nH]c2=O)c1
-0.92
COc1cc2[nH]c(=O)c(C(=O)Nc3cc(C(=O)NCc4ccccc4Cl)ccc3Cl)cc2cn1
0.86
COc1cc2[nH]c(=O)c(C(=O)Nc3cc(C(=O)NCc4ccccc4)ccc3C)cc2cn1
-0.32
COC(=O)c1ccc(C)c(NC(=O)c2cc3ccc(N4CCN(C)CC4)nc3[nH]c2=O)c1
0.12
COC(=O)c1ccc(Cl)c(NC(=O)c2cc3ccc(OC)nc3[nH]c2=O)c1
-0.77
COc1ccc2cc(C(=O)Nc3cc(C(=O)NC(CCN)c4ccccc4)ccc3C)c(=O)[nH]c2n1 (stereo not drawn)
-1.80
COc1cc2[nH]c(=O)c(C(=O)Nc3cc(C(=O)NC(CN)c4cccc(Cl)c4)ccc3C)cc2cn1 (stereo not drawn) [Example 57, hydrochloride]
-0.84
COc1cc2[nH]c(=O)c(C(=O)Nc3cc(C(=O)NC(CN)c4ccccc4)ccc3Cl)cc2cn1 (stereo not drawn) [Example 45, hydrochloride]
-1.85

Required: log10 of IC50, one value per molecule below.
1. COc1cc2[nH]c(=O)c(C(=O)Nc3cc(C(=O)NC(CCN)c4ccccc4)ccc3C)cc2cn1 (stereo not drawn) [Example 61, hydrochloride]
2. COC(=O)c1ccc(C)c(NC(=O)c2cc3cnc(N4CCN(C)CC4)cc3[nH]c2=O)c1
3. COc1cc2[nH]c(=O)c(C(=O)Nc3cc(C(=O)NC(CCN)c4cccc(Cl)c4)ccc3C)cc2cn1 (stereo not drawn) [Example 65, hydrochloride]
4. COC(=O)c1ccc(Cl)c(NC(=O)c2cc3ccc(N4CCN(C)CC4)nc3[nH]c2=O)c1
5. COc1cc2[nH]c(=O)c(C(=O)Nc3cc(C(=O)NCc4ccsc4)ccc3Cl)cc2cn1

Result:
[-0.81, 0.55, -0.68, -0.29, -1.39]
